From: patent US10071967B2

logP values for the molecules below.
# procedure.summary: log P by HPLC on a reversed-phase column (C 18), EEC Directive 79/831 Annex V.A8
# Assay type: physicochemical
# run.conditions: HPLC, reversed-phase column (C 18), 40° C.; 0.1% aqueous formic acid and acetonitrile, linear gradient 10% to 90% acetonitrile
observation.type: logP

INSERT INTO measurements (smiles_representation, numeric_result) VALUES
  ('Cn1cc(C(=S)N(Cc2cc(Cl)ccc2C2(C(F)(F)F)CC2)C2CC2)c(C(F)F)n1', 4.23),
  ('Cc1ccc(C2(C)CC2)c(CN(C(=O)c2oc(C)nc2C(F)F)C2CC2)c1', 4.39),
  ('Cn1nc(C(=O)N(Cc2ccc(Cl)cc2C2(C)CC2)C2CC2)c(C(F)F)n1', 4.54);

====

# procedure.summary: log P by HPLC on a reversed-phase column (C 18), EEC Directive 79/831 Annex V.A8
# Type: physicochemical
# run.conditions: HPLC, reversed-phase column (C 18), 40° C.; 0.1% aqueous formic acid and acetonitrile, linear gradient 10% to 90% acetonitrile
logP values for the compounds below.
observation.type: logP

INSERT INTO results (smiles_representation, numeric_result) VALUES
  ('CCOC1(c2ccc(C)cc2CN(C(=O)c2c(C)nn(C)c2Cl)C2CC2)CC1', 3.71),
  ('CCOC1(c2ccc(C)cc2CN(C(=O)c2cn(C)nc2C(F)F)C2CC2)CC1', 3.60),
  ('Cc1ccc(C2(Cl)CC2)c(CN(C(=O)c2cn(C)nc2C(F)F)C2CC2)c1', 3.51),
  ('CCC1(c2ccc(Cl)cc2CN(C(=O)c2cn(C)nc2C(F)F)C2CC2)CC1', 4.18),
  ('Cc1ccc(C2(C)CC2)c(CN(C(=O)c2nn(C)nc2C(F)F)C2CC2)c1', 4.37),
  ('COc1cc(CN(C(=O)c2cn(C)nc2C(F)F)C2CC2)c(C2(C)CC2)cc1OC', 2.98),
  ('Cc1ccc(C2(C3CC3)CC2)c(CN(C(=O)c2c(C)nn(C)c2F)C2CC2)c1', 4.11),
  ('Cc1nn(C)cc1C(=O)N(Cc1cc(Br)ccc1C1(C)CC1)C1CC1', 3.44),
  ('CCC1(c2ccc(C(F)(F)F)cc2CN(C(=O)c2cn(C)nc2C(F)F)C2CC2)CC1', 4.27),
  ('Cc1nn(C)c(F)c1C(=O)N(Cc1cc(Cl)ccc1C1(C(F)F)CC1)C1CC1', 3.33),
  ('CCOC1(c2ccc(C)cc2CN(C(=O)c2nn(C)nc2C(F)F)C2CC2)CC1', 4.21),
  ('Cc1nn(C)c(F)c1C(=O)N(Cc1ccc2c(c1C1(C)CC1)OCO2)C1CC1', 3.06),
  ('Cc1ccc(C2(C)CC2)c(CN(C(=S)c2cn(C)nc2C(F)F)C2CC2)c1', 4.39),
  ('CCCC1(c2ccc(C)cc2CN(C(=O)c2c(C)nn(C)c2F)C2CC2)CC1', 4.61),
  ('Cn1cc(C(=O)N(Cc2ccccc2C2(C(F)(F)F)CC2)C2CC2)c(C(F)F)n1', 3.41);

====

# procedure.summary: log P by HPLC on a reversed-phase column (C 18), EEC Directive 79/831 Annex V.A8
# Assay type: physicochemical
# run.conditions: HPLC, reversed-phase column (C 18), 40° C.; 0.1% aqueous formic acid and acetonitrile, linear gradient 10% to 90% acetonitrile
logP values for the compounds below.
observation.type: logP

INSERT INTO results (smiles_representation, observation_type, result) VALUES
  ('CCC1(c2cc(Cl)ccc2CN(C(=O)c2nn(C)nc2C(F)F)C2CC2)CC1', 'logP', 4.87),
  ('Cc1ccc(C2(C)CC2)c(CN(C(=O)c2c(C(F)(F)F)nn(C)c2Cl)C2CC2)c1', 'logP', 4.82),
  ('Cc1cc(C(=O)N(Cc2c(C3(C)CC3)ccc(C)c2F)C2CC2)c(C)o1', 'logP', 5.08),
  ('Cc1ccc(C2(C)CC2)c(CN(C(=O)c2sccc2I)C2CC2)c1', 'logP', 5.14);
